# tgt: CD26 (human, UniProt P27487)
# Sequence (P27487 29-766): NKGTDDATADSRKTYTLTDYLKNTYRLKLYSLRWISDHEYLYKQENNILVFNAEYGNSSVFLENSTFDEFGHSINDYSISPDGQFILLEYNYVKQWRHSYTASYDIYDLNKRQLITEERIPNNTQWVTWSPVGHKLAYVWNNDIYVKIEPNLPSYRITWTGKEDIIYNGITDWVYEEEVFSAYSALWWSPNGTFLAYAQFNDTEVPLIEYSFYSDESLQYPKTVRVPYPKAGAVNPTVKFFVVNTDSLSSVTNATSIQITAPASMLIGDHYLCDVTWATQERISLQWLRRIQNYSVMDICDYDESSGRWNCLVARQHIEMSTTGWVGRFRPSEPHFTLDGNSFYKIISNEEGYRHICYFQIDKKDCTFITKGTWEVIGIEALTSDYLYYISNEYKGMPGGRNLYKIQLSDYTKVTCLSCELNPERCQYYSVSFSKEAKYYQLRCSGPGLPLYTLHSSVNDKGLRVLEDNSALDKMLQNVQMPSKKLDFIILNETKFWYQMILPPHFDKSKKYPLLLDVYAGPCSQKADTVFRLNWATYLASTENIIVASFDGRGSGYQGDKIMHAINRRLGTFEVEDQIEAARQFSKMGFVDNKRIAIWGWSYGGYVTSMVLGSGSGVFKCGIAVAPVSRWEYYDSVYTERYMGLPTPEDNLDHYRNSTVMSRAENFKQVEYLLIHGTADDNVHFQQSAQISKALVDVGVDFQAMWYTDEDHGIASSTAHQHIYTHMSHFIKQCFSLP
# test-protocol: BLI
Task for the reader: assign each of the following binders its reported pKd.
One number for each entry, as −log10 of the molar value.

[[record]]
binder = "21G587 (CD26 arm) (antibody, V domains shown) VH: EVQLVQSGAELVKPGASVKLSCAASGFNIKDTYIYWVRQAPGQGLEWVGRIEPMNGNTKYDPKFQGRFTMTANTSKNTAYLQLSSLRSEDTAVYYCSRGGWLLLYVMDYWGQGTLVTVSS VL: DIVMTQSPSSLSVTPGERVSISCRSDKSLLHSNGNTYLYWFLQKPGQSPQVLIYRMSNLASGVPDRFSGSGSGTDFTLTISRVEAEDVGVYYCFQQLEYPYTFGQGTKLEIK"
reported = 9.45


Please supply pKd for each of the following items, keeping them in order.
1. 19G296 (CD26 arm) (antibody, V domains shown) VH: QVQLQESGPGLVKPSETLSLTCTVSGDSITSGYWHWIRQPPGKGLEWIGYINYSGYTYYNPSLKSRFTISRDTSKNQYYLQLNSVTAEDTAVYYCTSERNWGAFAYWGQGTLVTVSS VL: ENVLTQSPATLSASPGERATLSCRASSSVISTYLHWYQQKPGQAPKLWIYSTSNLASGVPARFSGSGSGTDYTLTISSVEPEDFAVYYCQQFSGYPYTFGQGTKLEIK
2. 19G297 (CD26 arm) (antibody, V domains shown) VH: EVQLQESGPGLVKPSGTLSLTCAVSGDSITSGYWHWIRQAPGKGLEWVGYINYSGYTYYNPSLKSRFTISRDTSKNQYYLQLNSVTAEDTAVYYCTSERNWGAFAYWGQGTLVTVSS VL: ENVLTQSPASLSASPGERVTITCRASSSVISTYLHWYQQKPGQAPKLWIYSTSNLASGVPARFSGSGSGTDYTLTISSVEPEDFATYYCQQFSGYPYTFGQGTKLEIK
3. 19G294 (CD26 arm) (antibody, V domains shown) VH: EVQLVQSGAELVKPGASVKLSCAASGFNIKDTYIYWVRQAPGQGLEWVGRIEPMNGNTKYDPKFQGRFTMTANTSKNTAYLQLSSLRSEDTAVYYCSRGGWLLLYVMDYWGQGTLVTVSS VL: DIVMTQSPSSLSVTPGERVSISCRSDKSLLHSNGNTYLYWFLQKPGQSPQVLIYRMSNLASGVPDRFSGSGSGTDFTLTISRVEAEDVGVYYCFQQLEYPYTFGQGTKLEIK
4. 17G29 (CD26 arm, YS110) (antibody, V domains shown) VH: EVQLVESGAGVKQPGGTLRLTCTASGFSLTTYGVHWVRQAPGKGLEWVGVIWGDGRTDYDAAFMSRVTISKDTSKSTVYLQMNSLRAEDTAVYYCMRNRHDWFDYWGQGTTVTVSS VL: DILLTQSPSSLSATPGERATITCRASQGIRNNLNWYQQKPGQAPRLLIYYSSNLQSGVPSRFSGSGSGTDFTLTISRLQPEDVAAYYCQQSIKLPFTFGSGTKVEIK

1. 7.83
2. 8.36
3. 9.04
4. 8.93
